observable: melting point

- C[C@H]1COCc2nc3c(N)nc4cc(CCS(C)(=O)=O)ccc4c3n21 [Example 61]: 205 to 206 °C
- C[C@@H]1COCc2nc3c(N)nc4ccccc4c3n21 [Example 26]: 280 to 282 °C
- C[C@H]1COCc2nc3c(N)nc4cc(CCC(=O)N(C)C)ccc4c3n21 [Example 64]: 235 to 237 °C
- Nc1nc2ccccc2c2c1nc1n2[C@@H](c2cc(-c3ccc(F)cc3)no2)COC1 [Example 50]: 261 to 262 °C
- C[C@H](O)[C@H]1COCc2nc3c(N)nc4ccccc4c3n21 [Example 41]: 207.6 to 208.7 °C

Please state melting point for every compound in the list that follows.
1. CC(C)[C@H]1COCc2nc3c(N)nc4ccc(O)cc4c3n21 [Example 20]
2. CC(C)[C@H]1COCc2nc3c(N)nc4c(c3n21)CCCC4 [Example 2]
3. C[C@@H](OCc1ccccc1)[C@H]1COCc2nc3c(N)nc4ccccc4c3n21 [Example 38]
4. C[C@H]1COCc2nc3c(N)nc4ccc(O)cc4c3n21 [Example 21]

208 to 210 °C
158 to 160 °C
189 to 190.8 °C
262 to 264 °C

Please state melting point for every compound in the list that follows.
1. C[C@@H]1CN(S(C)(=O)=O)Cc2nc3c(N)nc4ccccc4c3n21 [Example 32]
2. CN1CCN(C[C@H]2COCc3nc4c(N)nc5ccccc5c4n32)CC1 [Example 37]
3. C[C@H](OCc1ccccc1)[C@H]1COCc2nc3c(N)nc4ccccc4c3n21 [Example 40]

258 to 261 °C
187 to 190 °C
86.6 to 89.7 °C

Please state melting point for every compound in the list that follows.
1. CC1CCOCc2nc3c(N)nc4cc(Br)ccc4c3n21 (centres unmarked) [Example 22]
2. CC(C)[C@@H]1COCc2nc3c(N)nc4ccccc4c3n21 [Example 25]
3. CC(C)[C@H]1COCc2nc3c(N)nc4cc(OCC(=O)N5CCOCC5)ccc4c3n21 [Example 58]
4. Cc1nc(N)c2nc3n(c2c1C)[C@@H](C)COC3 [Example 44]

247 to 248 °C
248 to 249 °C
137 to 139 °C
264 to 267 °C
